Target: T1, interleukin 18 binding protein (IL-18BP) (UniProt O95998 31-194); note: unit not given here
T1 sequence (looked up): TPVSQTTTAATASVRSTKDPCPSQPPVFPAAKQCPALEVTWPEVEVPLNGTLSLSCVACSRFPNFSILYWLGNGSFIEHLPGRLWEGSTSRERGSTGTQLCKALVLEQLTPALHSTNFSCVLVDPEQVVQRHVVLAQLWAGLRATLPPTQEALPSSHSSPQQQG
Assay: cell-based or functional assay
property: HEK-Blue activity, +100 nM BP, DF-100,000

{"binder": "IL-18 variant T34E, S36P, D40A, N41G, K53T, S55R (ligand) YFGKLESKLSVIRNLNDQVLFIDQGNRPLFEDMEDPDMRAGAPRTIFIISMYTDRQPRGMAVTISVKSEKISTLSSENKIISFKEMNPPDNIKDTKSDIIFFQRSVPGHDNKMQFESSSYEGYFLASEKERDLFKLILKKEDELGDRSIMFTVQNED", "result": 0.09}
{"binder": "IL-18 variant K53H, S55M, Q56H (ligand) YFGKLESKLSVIRNLNDQVLFIDQGNRPLFEDMTDSDMRDNAPRTIFIISMYHDMHPRGMAVTISVKSEKISTLSSENKIISFKEMNPPDNIKDTKSDIIFFQRSVPGHDNKMQFESSSYEGYFLASEKERDLFKLILKKEDELGDRSIMFTVQNED", "result": 0.1}
{"binder": "IL-18 variant D23G, K53Y, S55Y (ligand) YFGKLESKLSVIRNLNDQVLFIGQGNRPLFEDMTDSDMRDNAPRTIFIISMYYDYQPRGMAVTISVKSEKISTLSSENKIISFKEMNPPDNIKDTKSDIIFFQRSVPGHDNKMQFESSSYEGYFLASEKERDLFKLILKKEDELGDRSIMFTVQNED", "result": 0.1}
